Biological target: C-C chemokine receptor type 2 (Homo sapiens)
Sequence (P41597 whole entry): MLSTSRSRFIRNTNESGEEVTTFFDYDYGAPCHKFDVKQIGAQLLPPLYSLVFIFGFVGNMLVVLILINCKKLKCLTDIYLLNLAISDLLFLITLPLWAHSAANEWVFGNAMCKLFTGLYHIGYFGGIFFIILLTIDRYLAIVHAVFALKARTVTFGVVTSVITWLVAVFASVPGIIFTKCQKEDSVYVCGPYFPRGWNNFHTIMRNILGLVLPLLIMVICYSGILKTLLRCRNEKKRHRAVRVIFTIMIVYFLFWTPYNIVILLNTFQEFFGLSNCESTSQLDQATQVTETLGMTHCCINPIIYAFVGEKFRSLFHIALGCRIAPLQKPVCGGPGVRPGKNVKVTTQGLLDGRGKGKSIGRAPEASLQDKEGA
Assay: Displacement of [125I]-MCP1 from human CCR2 receptor in THP1 cells after 2 hrs by scintillation counting
Format: cell-based, THP-1
MEASURE_NAME: IC50

Known IC50 results, listed for orientation:
[
  {
    "COMPOUND": "Cn1nc(NCC(=O)NC2CN([C@H]3CC[C@@H](C#N)CC3)C2)c2cc(C(F)(F)F)ccc21",
    "MEASURE_NAME": "IC50",
    "RECORDED_RESULT": "330 nM"
  },
  {
    "COMPOUND": "NC(=O)n1nc(NCC(=O)NC2CN([C@H]3CC[C@@H](c4ccc5c(c4)OCO5)CC3)C2)c2cc(C(F)(F)F)ccc21",
    "MEASURE_NAME": "IC50",
    "RECORDED_RESULT": "82 nM"
  },
  {
    "COMPOUND": "O=C(CNc1n[nH]c2ccc(C(F)(F)F)cc12)NC1CN([C@H]2CC[C@@H](c3ccccc3)CC2)C1 (stereo in doubt; 13a)",
    "MEASURE_NAME": "IC50",
    "RECORDED_RESULT": "12 nM"
  },
  {
    "COMPOUND": "CCOC(=O)[C@H]1CC[C@@H](N2CC(NC(=O)CNc3nn(S(C)(=O)=O)c4ccc(C(F)(F)F)cc34)C2)CC1",
    "MEASURE_NAME": "IC50",
    "RECORDED_RESULT": "920 nM"
  },
  {
    "COMPOUND": "O=C(COc1n[nH]c2ccc(C(F)(F)F)cc12)NC1CN([C@H]2CC[C@@H](c3ccccc3)CC2)C1",
    "MEASURE_NAME": "IC50",
    "RECORDED_RESULT": "510 nM"
  }
]

# batch size: 2; output IC50 per entry
1. CS(=O)(=O)N[C@H]1CC[C@@H](N2CC(NC(=O)CNc3n[nH]c4ccc(C(F)(F)F)cc34)C2)CC1
2. O=C(CNc1n[nH]c2ccc(C(F)(F)F)cc12)NC1CN([C@H]2CC[C@@H](c3ccc4c(c3)OCO4)CC2)C1

(A)
2080 nM
6 nM

---

Test: Efflux ratio of permeability from basolateral to apical side over apical to basolateral side in human Caco2 cell membrane
Assay type: ADME, cell-based
Details: Caco-2
I'd appreciate it if you could supply efflux ratio values for the items below.
One number for each entry.

[
  {
    "COMPOUND_STRING": "CCOC(=O)[C@H]1CC[C@@H](N2CC(NC(=O)CNc3nn(C(N)=O)c4ccc(C(F)(F)F)cc34)C2)CC1",
    "efflux ratio": 10.9
  }
]

Query compound follows.
(Q) Fill blank: measured efflux ratio of the compound `NC(=O)n1nc(NCC(=O)NC2CN([C@H]3CC[C@@H](c4ccc5c(c4)OCO5)CC3)C2)c2cc(C(F)(F)F)ccc21` is ____.
(A) 16.2

---

Target: C-C chemokine receptor type 2 (Homo sapiens)
Test: Displacement of [125I]-MCP1 from human CCR2 receptor in THP1 cells after 2 hrs by scintillation counting
Type: cell-based, THP-1
Could you please mark criterion met for values of IC50 below 20 nM and criterion not met for values at or above it?

Example entries begin here.
[
  {
    "COMPOUND_STRING": "N[C@H]1CC[C@@H](N2CC(NC(=O)CNc3n[nH]c4ccc(C(F)(F)F)cc34)C2)CC1",
    "CLASS": "criterion not met"
  },
  {
    "COMPOUND_STRING": "COc1ccc([C@]2(O)CC[C@H](N3CC(NC(=O)CNc4n[nH]c5ccc(C(F)(F)F)cc45)C3)CC2)cn1",
    "CLASS": "criterion met"
  },
  {
    "COMPOUND_STRING": "CCOC(=O)[C@H]1CC[C@@H](N2CC(NC(=O)CNc3noc4ccc(C(F)(F)F)cc34)C2)CC1",
    "CLASS": "criterion not met"
  },
  {
    "COMPOUND_STRING": "O=C(CNc1n[nH]c2ccc(C(F)(F)F)cc12)NC1CN([C@H]2CC[C@@H](O)CC2)C1",
    "CLASS": "criterion not met"
  },
  {
    "COMPOUND_STRING": "CCOC(=O)[C@H]1CC[C@@H](N2CC(NC(=O)CNc3nn(C)c4ccc(C(F)(F)F)cc34)C2)CC1",
    "CLASS": "criterion met"
  },
  {
    "COMPOUND_STRING": "Cn1nc(NCC(=O)NC2CN([C@H]3CC[C@@H](c4ccc5c(c4)OCO5)CC3)C2)c2cc(C(F)(F)F)ccc21",
    "CLASS": "criterion met"
  },
  {
    "COMPOUND_STRING": "O=C(CNc1noc2ccc(C(F)(F)F)cc12)NC1CN([C@H]2CC[C@@H](c3ccc4c(c3)OCO4)CC2)C1",
    "CLASS": "criterion not met"
  }
]

# input for lookup
(Q) In plain terms, does `CC(C)[C@H]1CC[C@@H](N2CC(NC(=O)CNc3n[nH]c4ccc(C(F)(F)F)cc34)C2)CC1` come in under 20 nM for IC50?
(A) criterion not met
